Target: ALK tyrosine kinase receptor (Homo sapiens, UniProt Q9UM73)
Sequence (Q9UM73 whole entry): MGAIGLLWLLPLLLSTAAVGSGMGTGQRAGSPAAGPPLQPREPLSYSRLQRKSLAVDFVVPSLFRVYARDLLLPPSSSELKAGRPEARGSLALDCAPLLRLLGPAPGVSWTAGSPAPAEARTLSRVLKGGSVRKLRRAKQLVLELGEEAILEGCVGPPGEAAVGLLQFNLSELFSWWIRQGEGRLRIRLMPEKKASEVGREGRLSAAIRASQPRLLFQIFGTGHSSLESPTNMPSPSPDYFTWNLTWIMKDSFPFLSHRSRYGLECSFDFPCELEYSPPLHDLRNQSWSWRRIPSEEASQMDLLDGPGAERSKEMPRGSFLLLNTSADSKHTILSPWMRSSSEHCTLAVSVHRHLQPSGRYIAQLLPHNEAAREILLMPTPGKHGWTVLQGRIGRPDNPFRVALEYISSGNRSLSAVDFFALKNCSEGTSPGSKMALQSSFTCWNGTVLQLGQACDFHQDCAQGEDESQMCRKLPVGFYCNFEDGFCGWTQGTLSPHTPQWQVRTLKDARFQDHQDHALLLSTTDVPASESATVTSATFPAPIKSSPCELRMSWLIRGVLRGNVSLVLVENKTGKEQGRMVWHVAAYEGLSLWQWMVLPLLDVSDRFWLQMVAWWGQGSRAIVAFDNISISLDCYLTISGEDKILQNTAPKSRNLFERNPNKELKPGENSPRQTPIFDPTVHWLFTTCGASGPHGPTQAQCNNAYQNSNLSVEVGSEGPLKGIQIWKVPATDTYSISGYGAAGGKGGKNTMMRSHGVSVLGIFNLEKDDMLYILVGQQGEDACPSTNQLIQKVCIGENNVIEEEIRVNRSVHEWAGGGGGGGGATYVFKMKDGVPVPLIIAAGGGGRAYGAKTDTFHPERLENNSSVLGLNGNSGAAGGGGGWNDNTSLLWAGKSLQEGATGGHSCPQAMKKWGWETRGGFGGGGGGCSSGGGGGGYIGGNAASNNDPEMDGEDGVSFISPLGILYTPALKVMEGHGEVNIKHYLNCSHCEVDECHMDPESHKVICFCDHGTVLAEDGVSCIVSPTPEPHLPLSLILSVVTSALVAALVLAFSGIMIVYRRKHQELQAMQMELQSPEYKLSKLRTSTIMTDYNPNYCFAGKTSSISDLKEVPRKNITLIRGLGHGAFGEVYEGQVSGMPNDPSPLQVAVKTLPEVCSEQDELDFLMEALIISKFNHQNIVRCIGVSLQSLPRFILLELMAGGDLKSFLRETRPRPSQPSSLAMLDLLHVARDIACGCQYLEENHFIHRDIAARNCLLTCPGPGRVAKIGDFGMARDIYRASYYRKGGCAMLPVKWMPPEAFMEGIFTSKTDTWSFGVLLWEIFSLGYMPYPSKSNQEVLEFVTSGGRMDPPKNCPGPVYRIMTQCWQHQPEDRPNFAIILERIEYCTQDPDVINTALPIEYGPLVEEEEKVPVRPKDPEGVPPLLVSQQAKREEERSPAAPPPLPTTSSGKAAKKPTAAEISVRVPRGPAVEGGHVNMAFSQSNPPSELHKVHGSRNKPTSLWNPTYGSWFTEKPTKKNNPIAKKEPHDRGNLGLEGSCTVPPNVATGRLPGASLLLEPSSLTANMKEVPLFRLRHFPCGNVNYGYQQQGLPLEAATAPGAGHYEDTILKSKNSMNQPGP
pIC50: −log10 of the molar value.
Rule: pIC50 under 8 gives class 0, otherwise class 1.

API: above_or_equal(metric=pIC50, cutoff=8) for item COc1cc2c(cc1Nc1ncc(Cl)c(Nc3ccccc3S(=O)(=O)C(C)C)n1)C(C)(C)C(N)CC2 (stereo not drawn)
class 0

Item COc1cc2c(cc1Nc1ncc(Cl)c(Nc3ccccc3S(=O)(=O)C(C)C)n1)CCC(NC(=O)CN(C)C)C2(C)C (stereo not drawn) with pIC50 of 8 or above?
class 1

Can "COc1cc2c(cc1Nc1ncc(Cl)c(Nc3ccccc3S(=O)(=O)C(C)C)n1)C(C)(C)/C(=N/NC(C)=O)CC2" be said to have pIC50 at or above 8?
class 0

Assess whether reported pIC50 for "COc1cc2c(cc1Nc1ncc(Cl)c(Nc3ccccc3S(=O)(=O)C(C)C)n1)CC/C(=N\O)C2(C)C" sits at 8 or higher.
class 0

pIC50 >= 8 for "COc1cc2c(cc1Nc1ncc(Cl)c(Nc3ccccc3S(=O)(=O)C(C)C)n1)CC/C(=N\N1CCN(C)CC1)C2(C)C" ?
class 1

Has "COc1cc2c(cc1Nc1ncc(Cl)c(Nc3ccccc3S(=O)(=O)C(C)C)n1)C(C)(C)/C(=N/N1CCN(C)CC1)CC2" a recorded pIC50 greater than or equal to 8?
class 0
